- EXPERIMENT: soluble on expression in E. coli; label from the status in PepcDB or PDB records
REPORTED_PROPERTY: soluble on expression in E. coli

{"PRIMARY_SEQUENCE": "MSHAVARLRAERLARSNKPFIARGSRAERCPDCRVIATHCLCAWKPRVQADAGVCLLMHDTEPLKPTNTGWLIADLIEDTWAFGWLRTAVDERLLALLDDPRWQPYIVFPGEFVAQERVVSEVVREPGKRPLFILLDATWTEARKMFRKSPYLDRFPVLSLQAEQMSRYRLRRSKRDDHFCTAEVAAMCLDLAGDGQASQALDAYLDVFSLHYLSGKRRLPLDEQDDTHQRLHTFLLEHHHHHH", "RESULT": "soluble"}
{"PRIMARY_SEQUENCE": "MGSDKIHHHHHHLNAAAQTTPEIRRPQLGWTMLETPRFLSETALLALAWPMLAKAPQGDGHPVMVLPGFATNDTMTVLLRSFLARLGYQVFPWDLGWNLDQHSAGENGEHLAARIDAIAAETGRKVSLVGWSLGGVIAREAARRDHGGLRQVVTLGSPFTGNPRATSLTSLYELLTGNKASSEKSAARYARGHHPLPVPSTAIFSRTDGITAWENCVSETDDRTENIEVHCSHFGFVANPGVFWAVADRLAQPEGQWRKFDPKGCFAAFYP", "RESULT": "not soluble"}
{"PRIMARY_SEQUENCE": "MAHTTGENLFTMKRVLRNLEADHDALREALADGRRMRDLLPYGDYINRYRNLTRDPMVVAIHKQFHESGLGGLTIDESMFPLSLRFEDDDVTLVFRRPEGFRHGTNEESSQRPLIERRSRIVLFWKYAEPGTDALKRISLQMFDNEGPLEEATMLSEKIPLLTKPESLTTAMFIPTHADEPRFVFGS", "RESULT": "not soluble"}
{"PRIMARY_SEQUENCE": "MAHHHHHHMMRQNLTSDSLITDTLRKAGVPCDVVGIVETVAGACRAIAAGLRNDGVTAAKSKNNFGDDVLSVDVMADKIISEALNSCQHVASYVSEESPSLASTAHSGKATYSVSYDPLDGSSIITSNFTVGSIFAVWPGNTPIGLTVRDMAASVVAVYGPRVVLFVGQEELGVAEFFCGADGEWKLAKRVWAGVCTPRTATVTAAGRGVKLKATVFSPGNLRAVRHLPWYKQLITMYMQEGATLRYTGGMVPDVCQIIVKGDGIYMTPASPQHKMKLRLLFEAAPMAFLIHCAGGRSTTGLTNMMNVRVVSMEQTTPIALGCARDVERYERMCRGCSKL", "RESULT": "soluble"}
{"PRIMARY_SEQUENCE": "MGSDKIHHHHHHVSPHSPVQLSLPVYLPDDETFNSYYPAAGNDELILSLQASAEGRANKAVYLWGPVKAGRTHLMHATCARANELNRSSFYLPLGIHASISTELLEGLEQLDLVCIDDVDAIAGHPLWEEALFDLYNRVAEHKRCALVVSASATASDAGFALPDLVSRMQWGLTYQLQPMADEEKLAALQRRAAMRGLQLPEDVGRFLLNRLARDLRTLFDVLDRLDKASLVHQRKLTIPFVKEMLRL", "RESULT": "not soluble"}
{"PRIMARY_SEQUENCE": "MGHHHHHHSHMNPLKNIKCTKCPEVFQGVEKLVFHMRAQHFIFMCPRCGKQFNHSSNLNRHMNVHRGVKSHSCGICGKCFTQKSTLHDHLNLHSGARPYRCSYCDVRFAHKPAIRRHLKEQHGKTTAENVL", "RESULT": "soluble"}
